Reference source for all entries: patent US20230372327A1

Experiment: clinical
Conditions: male, human, plasma, other: intranasal (nasal spray), 10 mg
Where a name gives a salt, the structure may show the parent alone.
observation-type: bioavailability
Report the figure along with its unit, number first.

Lookup result for Oc1ccc2c3c1O[C@H]1[C@@H](O)CC[C@@]4(O)[C@@H](C2)N(CC2CCC2)CC[C@]314 [nalbuphine, hydrochloride] ; measured bioavailability: 50%
